The measurements presented in this section are drawn from patent US20240247080A1.

# SYSTEM UNDER TEST: human GLP-1 receptor (human, UniProt P43220 24-463)
# ASSAY METHOD TEXT: cell-based or functional assay
ASSAY METRIC: EC50, CreLuc assay, 100% hP (nM)

YXEGTFTSDYSIXLEKQAQXAFVEWLIKGGPSSPQSLRHYYNWLTRQRY (Aib at 2, 13, 20; K28 side chain: C20DA-gGlu-gGlu-gGlu-gGlu-gGlu-gGlu-eLys; C-terminal NH2) [Compound 41]    1.47
YXEGTFTSDYSIXLEEEAQXAFVEWLIKGGPSSGASLRHYYNWLTRQRY (Aib at 2, 13, 20; K28 side chain: C20DA-gGlu-gGlu-gGlu-gGlu-gGlu-gGlu-eLys; C-terminal NH2) [Compound 66]    11.6
YXEGTFTSDYSIXLEKQAQXAFVEWLIKGGPSEYVSIRHYYNWLTRQRY (Aib at 2, 13, 20; K28 side chain: C20DA-gGlu-gGlu-gGlu-gGlu-gGlu-gGlu-eLys; C-terminal NH2) [Compound 42]    7.15
